Test system: PBMC
experimental-details: Cytotoxicity against human PBMCs assessed as residual metabolic activity at 20 uM in presence of PMA and ionomycin after 18 hrs by MTS assay
Assay type: ADME, cell-based
parameter: Activity

Query: Recorded Activity for CCOC(=O)CC[C@@H](NC(=O)[C@H](C)NC(=O)CNC(=O)c1cc2ccccc2[nH]1)C(=O)OCC , please?
Response: Non-toxic

Query: Recorded Activity for CCCCOC(=O)[C@@H](CCC(N)=O)NC(=O)[C@H](C)NC(=O)[C@@H](C)O[C@H]1[C@H](O)[C@@H](CO)OC(O)[C@@H]1NC(C)=O (stereo partly drawn) [MURABUTIDE] , please?
Response: Non-toxic

Query: Recorded Activity for CCOC(=O)CC[C@@H](NC(=O)[C@H](C)NC(=O)COCCN1C(=O)c2ccccc2S1(=O)=O)C(=O)OCC , please?
Response: Non-toxic

Query: Recorded Activity for CCOC(=O)CC[C@@H](NC(=O)[C@H](C)NC(=O)CCCCN1C(=O)c2ccccc2S1(=O)=O)C(=O)OCC , please?
Response: Non-toxic

Query: Recorded Activity for CCOC(=O)CC[C@@H](NC(=O)[C@H](C)NC(=O)CNC(=O)c1cc2ccccc2[nH]1)C(N)=O , please?
Response: Non-toxic

Count: 3. Required value per item: Activity.
1. CCOC(=O)CC[C@@H](NC(=O)[C@H](C)NC(=O)COCCN1C(=O)c2ccccc2S1(=O)=O)C(N)=O
2. CCOC(=O)CC[C@@H](NC(=O)[C@H](C)NC(=O)CCCCN1C(=O)c2ccccc2S1(=O)=O)C(N)=O
3. CCOC(=O)CC[C@@H](NC(=O)[C@H](C)NC(=O)C1=C2c3ccccc3S(=O)(=O)N2CCC1)C(=O)OCC

Response:
["Non-toxic", "Non-toxic", "Non-toxic"]

----------
System: PBMC
experimental-details: Immunomodulatory activity in human PBMCs assessed as increase in PMA/ionomycin-induced IL-12p70 release at 20 uM incubated for 18 hrs by multiplexed cytokine assay
Assay type: functional, cell-based
Active and inactive are the calls of the source. The rule behind the calls is not given here.
parameter: Activity

Query: Please tell me: Activity of CCOC(=O)CC[C@@H](NC(=O)[C@H](C)NC(=O)CNC(=O)c1cc2ccccc2[nH]1)C(=O)OCC , system PBMC?
Response: Active

Query: Please tell me: Activity of CCCCOC(=O)[C@@H](CCC(N)=O)NC(=O)[C@H](C)NC(=O)[C@@H](C)O[C@H]1[C@H](O)[C@@H](CO)OC(O)[C@@H]1NC(C)=O (some centres undefined) [MURABUTIDE] , system PBMC?
Response: Active

Query: Please tell me: Activity of CCOC(=O)CC[C@@H](NC(=O)[C@H](C)NC(=O)C1=C2c3ccccc3S(=O)(=O)N2CCC1)C(=O)OCC , system PBMC?
Response: Active

----------
experimental-details: Cytotoxicity against human PBMCs assessed as residual metabolic activity at 20 uM after 18 hrs by MTS assay
Format: ADME, cell-based, PBMC
run-conditions: read-out: Activity
parameter: viability at 18 h, 20 µM

The cases that follow already have their viability at 18 h, 20 µM on record.
Query: Recorded viability at 18 h, 20 µM for CCOC(=O)CC[C@@H](NC(=O)[C@H](C)NC(=O)COCCN1C(=O)c2ccccc2S1(=O)=O)C(=O)OCC , please?
Response: ≥ 90%

Query: Recorded viability at 18 h, 20 µM for CCOC(=O)CC[C@@H](NC(=O)[C@H](C)NC(=O)C1=C2c3ccccc3S(=O)(=O)N2CCC1)C(=O)OCC , please?
Response: ≥ 90%

Switching to the query record.
Query: Recorded viability at 18 h, 20 µM for CCOC(=O)CC[C@@H](NC(=O)[C@H](C)NC(=O)CCCCN1C(=O)c2ccccc2S1(=O)=O)C(N)=O , please?
Response: ≥ 90%

----------
target-of-assay: Nucleotide-binding oligomerization domain-containing protein 2 (Homo sapiens)
experimental-details: Agonist activity at human Nod2 expressed in HEK293-blue cells assessed as increase in NF-kappaB transcriptional activity at 20 uM incubated for 18 hrs using quanti blue assay based SEAP reporter gene assay
Type: functional, cell-based
The source made the active and inactive calls. The rule behind the calls is not given here.
Hi! Could you answer with just one of these? active, inactive

Example entries begin here.
Query: Record request — test call for CCOC(=O)CC[C@@H](NC(=O)[C@H](C)NC(=O)COCCN1C(=O)c2ccccc2S1(=O)=O)C(N)=O
Response: inactive

Query: Record request — test call for CCOC(=O)CC[C@@H](NC(=O)[C@H](C)NC(=O)CCCCN1C(=O)c2ccccc2S1(=O)=O)C(N)=O
Response: inactive

Query: Record request — test call for CCOC(=O)CC[C@@H](NC(=O)[C@H](C)NC(=O)C1=C2c3ccccc3S(=O)(=O)N2CCC1)C(=O)OCC
Response: active

Kindly review the next compound as well.
Query: Record request — test call for CCOC(=O)CC[C@@H](NC(=O)[C@H](C)NC(=O)CNC(=O)c1cc2ccccc2[nH]1)C(=O)OCC
Response: active
